The measured values listed here are drawn from patent US20160251440A1.

Hi there, I'd appreciate the recorded IC50 for every entry that follows.
- target: T1, human IL12Rβ1 extracellular domain Fc-fusion (human, UniProt P42701 24-545)
- T1 construct: extracellular domain; bought; also called IL12Rβ1-Fc; hIL-12Rβ1-Fc; not shown: Fc part, captured by anti-hIgG
- protocol-description: competition ELISA, coated IL-23 + IL12Rβ1-Fc
# output: bare number, implied unit nM

Challenge: Please report the recorded IC50 for IL12Rb1#31-35GS-CD4#8 (bispecific antibody, also called BI#47; T023200047) EVQLVESGGGLVQTGGSLRLSCAASGRTPSIIAMGWFRQTPGKEREFVGEIILSKGFTYYADSVKGRFTISRANAKNTITMYLQMNSLKSEDTAVYYCAARQNWSGNPTRTNEYEYWGQGTLVTVSSGGGGSGGGGSGGGGSGGGGSGGGGSGGGGSGGGGSEVQLVESGGGSVQPGGSLTLSCGTSGRTFNVMGWFRQAPGKEREFVAAVRWSSTGIYYTQYADSVKSRFTISRDNAKNTVYLEMNSLKPEDTAVYYCAADTYNSNPARWDGYDFRGQGTLVTVSS .
Response given: 13

Challenge: What would you report for IL12Rb1#31: 148F09 (VHH, also called IL12Rβ1#31; LG148F09) VHH: EVQLVESGGGLVQTGGSLRLSCAASGRTPSIIAMGWFRQTPGKEREFVGEIILSKGFTYYADSVKGRFTISRANAKNTITMYLQMNSLKSEDTAVYYCAARQNWSGNPTRTNEYEYWGQGTLVTVSS ?
Response given: 10

Challenge: What would you report for CD4#8-35GS-IL12Rb1#31 (bispecific antibody, also called BI#41; T023200041) EVQLVESGGGSVQPGGSLTLSCGTSGRTFNVMGWFRQAPGKEREFVAAVRWSSTGIYYTQYADSVKSRFTISRDNAKNTVYLEMNSLKPEDTAVYYCAADTYNSNPARWDGYDFRGQGTLVTVSSGGGGSGGGGSGGGGSGGGGSGGGGSGGGGSGGGGSEVQLVESGGGLVQTGGSLRLSCAASGRTPSIIAMGWFRQTPGKEREFVGEIILSKGFTYYADSVKGRFTISRANAKNTITMYLQMNSLKSEDTAVYYCAARQNWSGNPTRTNEYEYWGQGTLVTVSS ?
Response given: 15

Challenge: What would you report for IL12Rb1#30: 148C09 (VHH, also called IL12Rβ1#30; LG148C09) VHH: EVQLVESGGGLVQTGGSLRLSCAASGRTPRLVAMGWFRQTPGKEREFVGEIILSKGFTYYADSVKGRFTISRVNAKNTITMYLQMNSLKSEDTAVYYCAGRQNWSGSPARTNEYEYWGQGTLVTVSS ?
Response given: 1.5
